Assay: Stability of cannabinoid and Vitamin E components of Beverage 1 (AB White) stored at 8° C. and 21-25° C., LCMSMS over 570 days
Format: physicochemical
Details: beverage stored at 21-25° C., day 360
Labels assigned by Stability in AB White, 21-25° C. (content by LCMSMS) range: L = under 0.5 µg/mL, M = from 0.5 µg/mL up to 3 µg/mL, H = 3 µg/mL and over

Query block: For this compound, which bin applies? CCCCCc1cc(O)c2c(c1)OC(C)(CCC=C(C)C)C=C2 (stereo not drawn)
Result block: L

Query block: For this compound, which bin applies? CCCCCc1cc2c(c(O)c1C(=O)O)[C@@H]1C=C(C)CC[C@H]1C(C)(C)O2 [D9 THCA, delta-9-tetrahydrocannabinolic acid]
Result block: M

Query block: For this compound, which bin applies? CCCCCc1cc(O)c(C/C=C(\C)CCC=C(C)C)c(O)c1
Result block: H

Query block: For this compound, which bin applies? CCCCCc1cc(O)c2c(c1)OC(C)(C)[C@@H]1CCC(C)=C[C@@H]21 [D9 THC, delta-9-tetrahydrocannabinol, reference compound]
Result block: H

Query block: For this compound, which bin applies? C=C(C)[C@@H]1CCC(C)=C[C@H]1c1c(O)cc(CCCCC)c(C(=O)O)c1O
Result block: M

Query block: For this compound, which bin applies? CCCCCc1cc(O)c2c(c1)OC(C)(C)c1ccc(C)cc1-2
Result block: M

Query block: For this compound, which bin applies? C=C(C)[C@@H]1CCC(C)=C[C@H]1c1c(O)cc(CCC)cc1O
Result block: L

Query block: For this compound, which bin applies? CCCc1cc(O)c2c(c1)OC(C)(C)[C@@H]1CCC(C)=C[C@@H]21 [THCV, delta-9-tetrahydrocannabivarin]
Result block: H

Query block: For this compound, which bin applies? CCCCCc1cc(O)c2c(c1)OC1(C)CCC3C1C2C3(C)C (stereo not drawn)
Result block: M

----------
Assay: Stability of cannabinoid and Vitamin E components of Beverage 1 (AB White) stored at 8° C. and 21-25° C., LCMSMS over 570 days
Type: physicochemical
Conditions: beverage stored at 8° C., day 29
Answer each item with its documented Stability in AB White, 8° C. (content by LCMSMS).
Report as a plain number; the unit µg/mL is understood.

Query block: Identify Stability in AB White, 8° C. (content by LCMSMS) associated with the compound CCCCCc1cc(O)c2c(c1)OC(C)(CCC=C(C)C)C=C2 (stereo not shown)
Result block: 0.321

Query block: Identify Stability in AB White, 8° C. (content by LCMSMS) associated with the compound CCCc1cc(O)c2c(c1)OC(C)(C)[C@@H]1CCC(C)=C[C@@H]21 [THCV, delta-9-tetrahydrocannabivarin]
Result block: 3.52

Query block: Identify Stability in AB White, 8° C. (content by LCMSMS) associated with the compound CCCCCc1cc(O)c(C/C=C(\C)CCC=C(C)C)c(O)c1
Result block: 4.91

Query block: Identify Stability in AB White, 8° C. (content by LCMSMS) associated with the compound CCCCCc1cc2c(c(O)c1C(=O)O)[C@@H]1C=C(C)CC[C@H]1C(C)(C)O2 [D9 THCA, delta-9-tetrahydrocannabinolic acid]
Result block: 0.939

Query block: Identify Stability in AB White, 8° C. (content by LCMSMS) associated with the compound CCCCCc1cc(O)c2c(c1)OC(C)(C)c1ccc(C)cc1-2
Result block: 2.76

Query block: Identify Stability in AB White, 8° C. (content by LCMSMS) associated with the compound C=C(C)[C@@H]1CCC(C)=C[C@H]1c1c(O)cc(CCCCC)c(C(=O)O)c1O
Result block: 1.75

Query block: Identify Stability in AB White, 8° C. (content by LCMSMS) associated with the compound C=C(C)[C@@H]1CCC(C)=C[C@H]1c1c(O)cc(CCCCC)cc1O [CBD, cannabidiol, reference compound]
Result block: 28.24

----------
Answer each item with its documented Stability of Cannabinoids in AB Red.
Experiment: Stability of cannabinoid and Vitamin E components of Beverage 2 (AB Red) stored at 8° C. and 21-25° C., LCMSMS over 570 days
Conditions: 21-25° C., 30 days
Report as a plain number; the unit µg/mL is understood.

Query block: Identify Stability of Cannabinoids in AB Red associated with the compound CCCCCc1cc(O)c2c(c1)OC(C)(CCC=C(C)C)C=C2 (stereo not drawn)
Result block: 0.29

Query block: Identify Stability of Cannabinoids in AB Red associated with the compound C=C(C)[C@@H]1CCC(C)=C[C@H]1c1c(O)cc(CCC)cc1O
Result block: 0.20

Query block: Identify Stability of Cannabinoids in AB Red associated with the compound CCCCCc1cc(O)c2c(c1)OC(C)(C)[C@@H]1CCC(C)=C[C@@H]21 [D9 THC, delta-9-tetrahydrocannabinol, reference compound]
Result block: 12.4

Query block: Identify Stability of Cannabinoids in AB Red associated with the compound CCCCCc1cc(O)c2c(c1)OC(C)(C)c1ccc(C)cc1-2
Result block: 2.77

Query block: Identify Stability of Cannabinoids in AB Red associated with the compound CCCCCc1cc(O)c(C/C=C(\C)CCC=C(C)C)c(O)c1
Result block: 4.73

Query block: Identify Stability of Cannabinoids in AB Red associated with the compound CCCCCc1cc2c(c(O)c1C(=O)O)[C@@H]1C=C(C)CC[C@H]1C(C)(C)O2 [D9 THCA, delta-9-tetrahydrocannabinolic acid]
Result block: 1.34

Query block: Identify Stability of Cannabinoids in AB Red associated with the compound CCCc1cc(O)c2c(c1)OC(C)(C)[C@@H]1CCC(C)=C[C@@H]21 [THCV, delta-9-tetrahydrocannabivarin]
Result block: 3.15

Query block: Identify Stability of Cannabinoids in AB Red associated with the compound CCCCCc1cc(O)c2c(c1)OC1(C)CCC3C1C2C3(C)C (stereo not drawn)
Result block: 0.51

Query block: Identify Stability of Cannabinoids in AB Red associated with the compound C=C(C)[C@@H]1CCC(C)=C[C@H]1c1c(O)cc(CCCCC)c(C(=O)O)c1O
Result block: 1.68

----------
Assay: Stability of cannabinoid and Vitamin E components of Beverage 1 (AB White) stored at 8° C. and 21-25° C., LCMSMS over 570 days
Type: physicochemical
Conditions: beverage stored at 21-25° C., day 270
recorded.metric: Stability in AB White, 21-25° C. (content by LCMSMS) (µg/mL)
Report as a plain number; the unit µg/mL is understood.

Query block: Identify Stability in AB White, 21-25° C. (content by LCMSMS) associated with the compound CCCCCc1cc(O)c2c(c1)OC(C)(C)c1ccc(C)cc1-2 [CBN, cannabinol]
Result block: 2.67

Query block: Identify Stability in AB White, 21-25° C. (content by LCMSMS) associated with the compound CCCCCc1cc2c(c(O)c1C(=O)O)[C@@H]1C=C(C)CC[C@H]1C(C)(C)O2 [D9 THCA, delta-9-tetrahydrocannabinolic acid]
Result block: 0.905

Query block: Identify Stability in AB White, 21-25° C. (content by LCMSMS) associated with the compound C=C(C)[C@@H]1CCC(C)=C[C@H]1c1c(O)cc(CCCCC)c(C(=O)O)c1O [CBDA, cannabidiolic acid]
Result block: 1.71

Query block: Identify Stability in AB White, 21-25° C. (content by LCMSMS) associated with the compound CCCCCc1cc(O)c(C/C=C(\C)CCC=C(C)C)c(O)c1 [CBG, cannabigerol]
Result block: 4.62

----------
Experiment: Stability of cannabinoid and Vitamin E components of Beverage 1 (AB White) stored at 8° C. and 21-25° C., LCMSMS over 570 days
Format: physicochemical
Conditions: beverage stored at 21-25° C., day 150
Quick rule for you: Stability in AB White, 21-25° C. (content by LCMSMS) at 2 µg/mL or higher means Fulfilled, lower means Not fulfilled.

Query block: In plain terms: is recorded Stability in AB White, 21-25° C. (content by LCMSMS) at least 2 µg/mL for CCCc1cc(O)c2c(c1)OC(C)(C)[C@@H]1CCC(C)=C[C@@H]21 [THCV, delta-9-tetrahydrocannabivarin] ?
Result block: Fulfilled

Query block: In plain terms: is recorded Stability in AB White, 21-25° C. (content by LCMSMS) at least 2 µg/mL for CCCCCc1cc(O)c2c(c1)OC(C)(CCC=C(C)C)C=C2 (stereo not drawn) ?
Result block: Not fulfilled

Query block: In plain terms: is recorded Stability in AB White, 21-25° C. (content by LCMSMS) at least 2 µg/mL for CCCCCc1cc2c(c(O)c1C(=O)O)[C@@H]1C=C(C)CC[C@H]1C(C)(C)O2 [D9 THCA, delta-9-tetrahydrocannabinolic acid] ?
Result block: Not fulfilled

Query block: In plain terms: is recorded Stability in AB White, 21-25° C. (content by LCMSMS) at least 2 µg/mL for C=C(C)[C@@H]1CCC(C)=C[C@H]1c1c(O)cc(CCCCC)c(C(=O)O)c1O ?
Result block: Not fulfilled

Query block: In plain terms: is recorded Stability in AB White, 21-25° C. (content by LCMSMS) at least 2 µg/mL for CCCCCc1cc(O)c2c(c1)OC(C)(C)[C@@H]1CCC(C)=C[C@@H]21 [D9 THC, delta-9-tetrahydrocannabinol, reference compound] ?
Result block: Fulfilled

Query block: In plain terms: is recorded Stability in AB White, 21-25° C. (content by LCMSMS) at least 2 µg/mL for CCCCCc1cc(O)c2c(c1)OC(C)(C)c1ccc(C)cc1-2 ?
Result block: Fulfilled

Query block: In plain terms: is recorded Stability in AB White, 21-25° C. (content by LCMSMS) at least 2 µg/mL for C=C(C)[C@@H]1CCC(C)=C[C@H]1c1c(O)cc(CCC)cc1O ?
Result block: Not fulfilled

Query block: In plain terms: is recorded Stability in AB White, 21-25° C. (content by LCMSMS) at least 2 µg/mL for CCCCCc1cc(O)c2c(c1)OC1(C)CCC3C1C2C3(C)C (stereo not drawn) ?
Result block: Not fulfilled

Query block: In plain terms: is recorded Stability in AB White, 21-25° C. (content by LCMSMS) at least 2 µg/mL for CCCCCc1cc(O)c(C/C=C(\C)CCC=C(C)C)c(O)c1 ?
Result block: Fulfilled
